Data origin: patent US20230167182A1

Parameter koff: see the listing below.
Molecular target: T1, recombinant human IL6R-his (human, UniProt P08887 20-365)
T1 construct: In house made; the entry includes the C-terminal His tag; also called human IL6R-his protein
T1 sequence: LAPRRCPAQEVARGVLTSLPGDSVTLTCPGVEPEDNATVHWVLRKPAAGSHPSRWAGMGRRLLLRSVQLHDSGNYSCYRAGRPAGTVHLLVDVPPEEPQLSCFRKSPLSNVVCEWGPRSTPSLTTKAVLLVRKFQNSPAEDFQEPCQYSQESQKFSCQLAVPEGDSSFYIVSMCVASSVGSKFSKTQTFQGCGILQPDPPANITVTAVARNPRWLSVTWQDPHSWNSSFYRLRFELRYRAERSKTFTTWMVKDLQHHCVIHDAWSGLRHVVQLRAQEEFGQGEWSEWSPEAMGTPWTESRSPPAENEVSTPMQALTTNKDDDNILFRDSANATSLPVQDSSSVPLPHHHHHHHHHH
Assay: SPR Biacore; antibody from diluted cell supernatant captured by anti-human IgG on CM5, human IL6R in flow
Write it as a number; the unit s⁻¹ goes unstated.

Consider the worked cases shown below.
humanized antibody hu1H7-V3 (antibody, human IgG1, kappa, V domains shown, Human IgG1 / kappa) VH: QVQLVQSGAEVKKPGASVKVSCKASGYTFTNYWMHWVRQAPGQGLEWIGEINPTNGRTNYNENFKSKVTMTVDTSTSTVYMELSSLRSEDTAVYYCARLNTHYVFDSWGQGTLVTVSS VL: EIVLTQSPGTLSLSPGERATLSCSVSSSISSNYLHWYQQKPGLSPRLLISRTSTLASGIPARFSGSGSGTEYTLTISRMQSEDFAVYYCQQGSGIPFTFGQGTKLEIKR : 0.000176
humanized antibody hu1H7-V1 (antibody, human IgG1, kappa, V domains shown, Human IgG1 / kappa; also called hu1H7-Vl) VH: QVQLVQSGAEVKKPGASVKVSCKASGYTFTNYWMHWVRQAPGQGLEWIGEINPTNGRTNYNENFKSKVTLTVDKSTSTAYMELSSLRSEDTAVYYCARLNTHYVFDSWGQGTLVTVSS VL: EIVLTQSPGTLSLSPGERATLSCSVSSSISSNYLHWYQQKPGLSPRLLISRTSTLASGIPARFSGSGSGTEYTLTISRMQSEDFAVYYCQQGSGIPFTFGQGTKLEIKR : 0.000173

Next up:
Prompt: Give its koff value. Item: humanized antibody hu1H7-V12 (antibody, human IgG1, kappa, V domains shown, Human IgG1 / kappa) VH: QVQLVQSGAEVKKPGASVKVSCKASGYTFTNYWMHWVRQAPGQGLEWIGEINPTNGRTNYNENFKSKVTLTVDTSTSTVYMELSSLRSEDTAVYYCARLNTHYVFDSWGQGTLVTVSS VL: EIVLTQSPGTLSLSPGERATLSCSVSSSISSNYLHWYQQKPGLSPRLLISRTSTLASGIPARFSGSGSGTEFTLTISRLQSEDFAVYYCQQGSGIPFTFGQGTKLEIKR
Completion: 0.000207
